procedure summary: Half life in mouse liver microsomes
Format: ADME
conditions used: microsomes
Reported t1/2 values are given for each entry in this list.
Report the figure in min without appending any unit label.

Below: 7 compounds and their reported t1/2.
# given smiles, units symbol, t1/2
records = [
    ("O=C1CSCCN1c1ccc(CO[C@@H]2COc3nc([N+](=O)[O-])cn3C2)cc1", "min", 30.6),
    ("O=C1COCCN1c1ccc(CO[C@@H]2COc3nc([N+](=O)[O-])cn3C2)cc1", "min", 1100),
    ("O=[N+]([O-])c1cn2c(n1)OC[C@@H](OCc1ccc(N3CCCCC3)nc1)C2", "min", 78),
    ("O=[N+]([O-])c1cn2c(n1)OC[C@@H](OCc1ccc(N3CCOCC3)c(F)c1)C2", "min", 462),
    ("O=[N+]([O-])c1cn2c(n1)OC[C@@H](OCc1ccc(N3CCSCC3)c(F)c1)C2", "min", 3.6),
    ("O=[N+]([O-])c1cn2c(n1)OC[C@@H](OCc1ccc(N3CCCCC3)c(F)c1)C2", "min", 24.6),
    ("O=[N+]([O-])c1cn2c(n1)OC[C@@H](OCc1ccc(N3CCSCC3)cc1)C2", "min", 4.2),
]

[in] Need t1/2, item O=C1CSCCN1c1ccc(CO[C@@H]2COc3nc([N+](=O)[O-])cn3C2)cn1
[out] 37.8

----------
procedure summary: AUC(infinity) in C57BL/6 mouse at 10 mg/kg, iv
Format: ADME, organism-based
Parameters: dose 10 mg/kg, time infinity, route intravenous
conditions used: in vivo
Reported AUC(0-inf) values are given for each entry in this list.
Report the figure in ng·h/mL without appending any unit label.

Below: 2 compounds and their reported AUC(0-inf).
# given smiles, AUC(0-inf) (ng·h/mL)
measured = [
    ("O=C1COCCN1c1ccc(CO[C@@H]2COc3nc([N+](=O)[O-])cn3C2)cc1", 7410),
    ("O=C1COCCN1c1ccc(CO[C@@H]2COc3nc([N+](=O)[O-])cn3C2)cc1F", 5180),
]

Would you kindly look at the next entry?
[in] Need AUC(0-inf), item O=[N+]([O-])c1cn2c(n1)OC[C@@H](OCc1ccc(N3CCOCC3)c(F)c1)C2
[out] 10100

----------
procedure summary: Apparent permeability from apical to basolateral side in human Caco2 cells
Assay type: ADME, cell-based
conditions used: caco-2
Hi! Could you tag entries with Papp below 40 ×10⁻⁶ cm/s as 1, and those at or above as 0? Much appreciated.

# given smiles, category
data = [
    ("O=[N+]([O-])c1cn2c(n1)OC[C@@H](OCc1ccc(N3CCCCC3)cc1)C2", 1),
    ("O=[N+]([O-])c1cn2c(n1)OC[C@@H](OCc1ccc(N3CCOCC3)cc1)C2", 0),
    ("O=C1CSCCN1c1ccc(CO[C@@H]2COc3nc([N+](=O)[O-])cn3C2)cc1F", 1),
]

[in] Record O=C1CCCCN1c1ccc(CO[C@@H]2COc3nc([N+](=O)[O-])cn3C2)cn1 : is its Papp strictly below 40 ×10⁻⁶ cm/s?
[out] 1

[in] Record O=C1COCCN1c1ccc(CO[C@@H]2COc3nc([N+](=O)[O-])cn3C2)cc1F : is its Papp strictly below 40 ×10⁻⁶ cm/s?
[out] 0

[in] Record O=[N+]([O-])c1cn2c(n1)OC[C@@H](OCc1ccc(N3CCSCC3)c(F)c1)C2 : is its Papp strictly below 40 ×10⁻⁶ cm/s?
[out] 1

[in] Record O=[N+]([O-])c1cn2c(n1)OC[C@@H](OCc1ccc(N3CCSCC3)cc1)C2 : is its Papp strictly below 40 ×10⁻⁶ cm/s?
[out] 1

[in] Record O=[N+]([O-])c1cn2c(n1)OC[C@@H](OCc1ccc(N3CCCCC3)nc1)C2 : is its Papp strictly below 40 ×10⁻⁶ cm/s?
[out] 1

[in] Record O=C1CCCCN1c1ccc(CO[C@@H]2COc3nc([N+](=O)[O-])cn3C2)cc1F : is its Papp strictly below 40 ×10⁻⁶ cm/s?
[out] 0

[in] Record O=C1CCCCN1c1ccc(CO[C@@H]2COc3nc([N+](=O)[O-])cn3C2)cc1 : is its Papp strictly below 40 ×10⁻⁶ cm/s?
[out] 0

[in] Record O=[N+]([O-])c1cn2c(n1)OC[C@@H](OCc1ccc(N3CCOCC3)c(F)c1)C2 : is its Papp strictly below 40 ×10⁻⁶ cm/s?
[out] 0

[in] Record O=C1COCCN1c1ccc(CO[C@@H]2COc3nc([N+](=O)[O-])cn3C2)cn1 : is its Papp strictly below 40 ×10⁻⁶ cm/s?
[out] 0

----------
procedure summary: Clearance in C57BL/6 mouse at 10 mg/kg, iv
Assay type: ADME, organism-based
conditions used: in vivo
Reported clearance values are given for each entry in this list.
Report the figure in mL/min/kg without appending any unit label.

Below: 2 molecules and their reported clearance.
# given smiles, units symbol, clearance
data = [
    ("O=C1COCCN1c1ccc(CO[C@@H]2COc3nc([N+](=O)[O-])cn3C2)cc1", "mL/min/kg", 22.5),
    ("O=C1COCCN1c1ccc(CO[C@@H]2COc3nc([N+](=O)[O-])cn3C2)cc1F", "mL/min/kg", 32.3),
]

[in] Need clearance, item O=[N+]([O-])c1cn2c(n1)OC[C@@H](OCc1ccc(N3CCOCC3)c(F)c1)C2
[out] 16.5

----------
Reported IC50 values are given for each entry in this list.
Tested on: Vero
procedure summary: Cytotoxicity against African green monkey Vero cells by cell titer glo assay
Format: cell-based
conditions used: Chlorocebus sabaeus
Report the figure in µg/mL without appending any unit label.

Below: 5 compounds and their reported IC50.
# given smiles, units symbol, IC50
records = [
    ("O=[N+]([O-])c1cn2c(n1)OC[C@@H](OCc1ccc(N3CCCCC3)c(F)c1)C2", "µg/mL", 56.2),
    ("O=C1CSCCN1c1ccc(CO[C@@H]2COc3nc([N+](=O)[O-])cn3C2)cn1", "µg/mL", 15.3),
    ("O=[N+]([O-])c1cn2c(n1)OC[C@@H](OCc1ccc(N3CCCCC3)cc1)C2", "µg/mL", 11.6),
    ("O=[N+]([O-])c1cn2c(n1)OC[C@@H](OCc1ccc(OC(F)(F)F)cc1)C2", "µg/mL", 44),
    ("O=[N+]([O-])c1cn2c(n1)OC[C@@H](OCc1ccc(N3CCOCC3)c(F)c1)C2", "µg/mL", 23.1),
]

Would you kindly look at the next entry?
[in] Need IC50, item O=[N+]([O-])c1cn2c(n1)OC[C@@H](OCc1ccc(N3CCSCC3)cc1)C2
[out] 13.7

----------
Tested on: Vero
procedure summary: Cytotoxicity against African green monkey Vero cells by cell titer glo assay
Assay type: cell-based
conditions used: Chlorocebus sabaeus
measured metric: IC50

Below: 5 compounds and their reported IC50.
# given smiles, IC50
rows = [
    ("O=C1CCCCN1c1ccc(CO[C@@H]2COc3nc([N+](=O)[O-])cn3C2)cn1", "> 100 µg/mL"),
    ("O=C1CSCCN1c1ccc(CO[C@@H]2COc3nc([N+](=O)[O-])cn3C2)cc1", "> 100 µg/mL"),
    ("O=C1COCCN1c1ccc(CO[C@@H]2COc3nc([N+](=O)[O-])cn3C2)cc1", "> 100 µg/mL"),
    ("O=C1CSCCN1c1ccc(CO[C@@H]2COc3nc([N+](=O)[O-])cn3C2)cc1F", "> 100 µg/mL"),
    ("O=[N+]([O-])c1cn2c(n1)OC[C@@H](OCc1ccc(N3CCOCC3)cc1)C2", "42.3 µg/mL"),
]

[in] Need IC50, item O=[N+]([O-])c1cn2c(n1)OC[C@@H](OCc1ccc(N3CCCCC3)nc1)C2
[out] > 100 µg/mL

[in] Need IC50, item O=C1CCCCN1c1ccc(CO[C@@H]2COc3nc([N+](=O)[O-])cn3C2)cc1
[out] > 100 µg/mL

[in] Need IC50, item O=[N+]([O-])c1cn2c(n1)OC[C@@H](OCc1ccc(N3CCSCC3)c(F)c1)C2
[out] 14.2 µg/mL

[in] Need IC50, item O=C1COCCN1c1ccc(CO[C@@H]2COc3nc([N+](=O)[O-])cn3C2)cc1F
[out] > 100 µg/mL

----------
System: Klebsiella pneumoniae
procedure summary: Antimicrobial activity against Klebsiella pneumoniae
Assay type: functional, organism-based
Calls of active or inactive are those of the source. The calls are words filed in the database; no cut-off is given here.
measured metric: Activity

Below: 10 compounds and their reported Activity.
# given smiles, measured target, Activity
data = [
    ("O=[N+]([O-])c1cn2c(n1)OC[C@@H](OCc1ccc(N3CCOCC3)c(F)c1)C2", "Klebsiella pneumoniae", "inactive"),
    ("O=C1COCCN1c1ccc(CO[C@@H]2COc3nc([N+](=O)[O-])cn3C2)cc1F", "Klebsiella pneumoniae", "inactive"),
    ("O=[N+]([O-])c1cn2c(n1)OC[C@@H](OCc1ccc(N3CCOCC3)cc1)C2", "Klebsiella pneumoniae", "inactive"),
    ("O=[N+]([O-])c1cn2c(n1)OC[C@@H](OCc1ccc(OC(F)(F)F)cc1)C2", "Klebsiella pneumoniae", "inactive"),
    ("O=C1CCCCN1c1ccc(CO[C@@H]2COc3nc([N+](=O)[O-])cn3C2)cc1", "Klebsiella pneumoniae", "inactive"),
    ("O=[N+]([O-])c1cn2c(n1)OC[C@@H](OCc1ccc(N3CCCCC3)nc1)C2", "Klebsiella pneumoniae", "inactive"),
    ("O=C1CCCCN1c1ccc(CO[C@@H]2COc3nc([N+](=O)[O-])cn3C2)cn1", "Klebsiella pneumoniae", "inactive"),
    ("O=C1CSCCN1c1ccc(CO[C@@H]2COc3nc([N+](=O)[O-])cn3C2)cn1", "Klebsiella pneumoniae", "inactive"),
    ("O=C1CCCCN1c1ccc(CO[C@@H]2COc3nc([N+](=O)[O-])cn3C2)cc1F", "Klebsiella pneumoniae", "inactive"),
    ("O=[N+]([O-])c1cn2c(n1)OC[C@@H](OCc1ccc(N3CCSCC3)cc1)C2", "Klebsiella pneumoniae", "inactive"),
]

[in] Need Activity, item O=[N+]([O-])c1cn2c(n1)OC[C@@H](OCc1ccc(N3CCOCC3)nc1)C2
[out] inactive

[in] Need Activity, item O=C1CSCCN1c1ccc(CO[C@@H]2COc3nc([N+](=O)[O-])cn3C2)cc1F
[out] inactive

[in] Need Activity, item O=[N+]([O-])c1cn2c(n1)OC[C@@H](OCc1ccc(N3CCCCC3)c(F)c1)C2
[out] inactive

[in] Need Activity, item O=C1COCCN1c1ccc(CO[C@@H]2COc3nc([N+](=O)[O-])cn3C2)cc1
[out] inactive
